AC26 for assorted compounds
System: D54 ERlucT glycosylation luciferase reporter, luminescence, 24 h
EXPERIMENTAL PROTOCOL: N-linked glycosylation inhibitors, luciferase reporter, dose response, D54 ERlucT cells, luminescence, cherry-picks (AID 624491);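 further: signal gain reflects blocked N-linked glycosylation of a luciferase reporter; actives raise luciferase signal so AC26 marks activators of the reporter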

Some solved cases for reference:
>>> result("COc1ccc(NC(=O)COC(=O)/C=C/C(=O)OCC(=O)Nc2ccc(OC)c(Cl)c2)cc1Cl")
"16600 nM"
>>> result("O=C(COc1ccccc1CNCc1ccccc1)Nc1ccccc1")
"850 nM"
>>> result("O=[N+]([O-])c1ccc(Sc2cc[n+]([O-])c3ccccc23)c([N+](=O)[O-])c1")
"5960 nM"

Given the entry CCN1C(=O)c2cccc3c(S(=O)(=O)N4CCC(C)CC4)ccc1c23 , report its measured AC26. 1720 nM

Given the entry COc1ccc(C2=NOC(COc3ccc4c(C)cc(=O)oc4c3)C2)c(OC)c1 (centres undefined) , report its measured AC26. 1070 nM

Given the entry O=C(N/N=C/c1ccco1)c1cc(-c2ccncc2)nc2ccccc12 , report its measured AC26. 285 nM

Given the entry Cc1cc(Br)cc2c(C(=O)Nc3c(C)n(C)n(-c4ccccc4)c3=O)cc(-c3cccs3)nc12 , report its measured AC26. 3650 nM

Given the entry CN(C)CCCN1C(=O)c2cccc3c(Br)ccc(c23)C1=O , report its measured AC26. 871 nM

----------
Tested on: D54 ERlucT glycosylation luciferase reporter, luminescence, 24 h
EXPERIMENTAL PROTOCOL: N-linked glycosylation inhibitors, luciferase reporter, dose response, D54 ERlucT cells, luminescence, cherry-picks (AID 624491);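 further: signal gain reflects blocked N-linked glycosylation of a luciferase reporter; actives raise luciferase signal so AC26 marks activators of the reporter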
VALUE TYPE: AC26

Some solved cases for reference:
>>> result("COc1ccc(-n2c(=S)[nH]c3cc(C(=O)Nc4ccc(C)c(F)c4)ccc3c2=O)c(OC)c1")
"9.69 µM"
>>> result("O=C(NCc1cccs1)C1Cc2c(-c3ccc(Cl)cc3)ccnc2O1 (stereo not drawn)")
"1.67 µM"

// next entry
Request: AC26, test system D54 ERlucT glycosylation luciferase reporter, luminescence, 24 h, entry CCOCCCNC(=O)c1cc2c(=O)n(CC)c3ccccc3c2s1 8.29 µM

----------
Tested on: D54 ERlucT glycosylation luciferase reporter, luminescence, 24 h
EXPERIMENTAL PROTOCOL: N-linked glycosylation inhibitors, luciferase reporter, dose response, D54 ERlucT cells, luminescence, cherry-picks (AID 624491);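 further: signal gain reflects blocked N-linked glycosylation of a luciferase reporter; actives raise luciferase signal so AC26 marks activators of the reporter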
VALUE TYPE: AC26

Given the entry CC(=O)Nc1sc(C)c(C)c1C(=O)OCC(=O)Nc1ccccc1 , report its measured AC26. 4.78 µM

----------
Test system: D54 ERlucT glycosylation luciferase reporter, luminescence, 24 h
EXPERIMENTAL PROTOCOL: N-linked glycosylation inhibitors, luciferase reporter, dose response, D54 ERlucT cells, luminescence, cherry-picks (AID 624491);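 further: signal gain reflects blocked N-linked glycosylation of a luciferase reporter; actives raise luciferase signal so AC26 marks activators of the reporter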
VALUE TYPE: AC26

Some solved cases for reference:
>>> result("Cc1nc2ccccc2c2oc(C(=O)NCCCN3CC(C)CC(C)C3)cc12 (stereo not drawn)")
"5.38 µM"
>>> result("CC(=O)Nc1cccc(-c2ccnc3c2CC(C)(C(=O)NCc2ccco2)O3)c1 (stereo not drawn)")
"0.617 µM"
>>> result("COc1ccc(S(=O)(=O)N2CCCOC2CNC(=O)C(=O)NCCc2ccco2)cc1C (stereo not drawn)")
"9.49 µM"
>>> result("COc1cc2c(cc1OC)C(c1cccs1)N(C(=O)c1cccc(S(=O)(=O)N(C)C)c1)CC2 (stereo not drawn)")
"1.32 µM"
>>> result("Cc1nc(-c2ccccc2)sc1-c1nc(-c2ccncc2)ncc1S(=O)(=O)c1ccccc1")
"0.956 µM"
>>> result("O=C(NCCC1=CCCCC1)C1CCC(CNc2nc(=S)[nH]c3ccccc23)CC1 (stereo not drawn)")
"3.92 µM"
>>> result("Cc1ccc(C(=O)N/C(=C\\c2ccco2)C(=O)NCCc2c[nH]c3ccccc23)cc1")
"2.31 µM"
>>> result("O=C(COC(=O)Cn1cnc2ccccc21)Nc1cccc2c1C(=O)c1ccccc1C2=O")
"2.84 µM"

Given the entry COc1ccc(NC(=O)C(=O)NCCC2CCCCN2S(=O)(=O)c2ccccc2)cc1 (stereo not drawn) , report its measured AC26. 5.68 µM

Given the entry COc1ccc(/C=C2\SC(=S)N(CCC(=O)NC3CCCC3)C2=O)cc1OC , report its measured AC26. 6.27 µM

Given the entry COc1ccc(-c2nc3c(s2)CCc2onc(-c4ccc(OC)cc4)c2-3)cc1 , report its measured AC26. 14.4 µM

Given the entry CO/N=C\CC(=O)Nc1ccc(Cl)cc1Cl , report its measured AC26. 1.07 µM

Given the entry CCN1C(=O)Nc2cccc3cccc1c23 , report its measured AC26. 3.36 µM

Data credit: PubChem BioAssay AID624491
